- measured_on: Arp2/3 complex (bovine brain) (bovine, UniProt P61157 1-418; A7MB62 1-394; Q58CQ2 1-372; Q3MHR7 1-300; Q3T035 1-178; Q148J6 …)
- protocol_description: ITC; ATP

| binder | Kd (nM) |
| --- | --- |
| SWTDNIMAQKSSKGAAAEIREQGDGAEDEEWDD (domain or fragment) [Arpin_CA (Arpin residues S194-D226)] | 1710 |
